test system: E. coli BW25113; assay: relative growth (fraction of control); higher = less inhibition; details: 50 µM
Over roughly 2,300 compounds, “relative growth” has its median near 1; the lowest 2% begin near 0.046. Only a sample is shown.
Rule: T for relative growth not less than 1, F for anything less.

MOLECULE: CN1CCC(=C2c3ccccc3Sc3ccccc32)CC1.O=C(O)C=CC(=O)O
TGT: E. coli BW25113
LABEL_CLASS: F

MOLECULE: OCC(O)C(O)CO (centres undefined)
TGT: E. coli BW25113
LABEL_CLASS: F

MOLECULE: C=C1C2CCC3(C)C(c4ccoc4)OC(=O)CC13OC1CC(O)C(C)(C)C(CC(=O)OC)C12C (stereo not drawn) [3alpha-HYDROXY-3-DEOXYANGOLENSIC ACID METHYL ESTER]
TGT: E. coli BW25113
LABEL_CLASS: T

MOLECULE: CN1CCCN=C1C=Cc1cccc(O)c1.O=C(O)c1cc2ccccc2c(Cc2c(O)c(C(=O)O)cc3ccccc23)c1O
TGT: E. coli BW25113
LABEL_CLASS: T

MOLECULE: CC(C)Cc1ccc(C(C)C(=O)O)cc1 (centres undefined)
TGT: E. coli BW25113
LABEL_CLASS: F

MOLECULE: COCCCCC(=NOCCN)c1ccc(C(F)(F)F)cc1.O=C(O)C=CC(=O)O
TGT: E. coli BW25113
LABEL_CLASS: F

MOLECULE: CC1CC2C3CCC4=CC(=O)C=CC4(C)C3(F)C(O)CC2(C)C1(O)C(=O)CO (centres undefined)
TGT: E. coli BW25113
LABEL_CLASS: F

MOLECULE: CC(C)=CCCC(C)C1CCC2(C)C3=C(CCC12C)C1(C)CCC(O)C(C)(C)C1CC3 (centres undefined)
TGT: E. coli BW25113
LABEL_CLASS: F
